- assay-target: T1, human B7-H4 (purified monomeric recombinant human protein, ACRO biosystems) (human, UniProt Q7Z7D3 29-258, limits assumed, chemically biotinylated (EZ-Link NHS-LC-Biotin) in the yeast display and competition experiments; non-biotinylated in SPR)
- T1 construct: Bought recombinant monomeric protein; also called B7x; B7S1
- T1 sequence: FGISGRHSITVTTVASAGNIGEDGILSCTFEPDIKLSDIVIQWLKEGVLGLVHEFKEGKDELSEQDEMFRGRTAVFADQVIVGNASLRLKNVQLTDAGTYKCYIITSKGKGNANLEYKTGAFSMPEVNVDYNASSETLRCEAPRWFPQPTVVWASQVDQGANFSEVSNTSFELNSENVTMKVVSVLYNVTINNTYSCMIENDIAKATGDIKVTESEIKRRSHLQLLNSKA
- assay-comment: SPR (Carterra LSA); scFv-Fc captured on anti-human IgG Fc, antigen injected
value-type: Kd

Recorded results for 2 binders are shown here.
binder	test-value
A07 scFv-Fc (scFv, V domains shown, Tested as scFv-Fc fusion (human IgG1 Fc, vector pDNL9) in crude yeast supernatant; Combo 2 library) VH: EVQLVESGGGVVQPGRSLRLSCAASGFTFSSRSMNWVRQAPGKGLEWVSAISGSGSTVYYADSVKGRFTISRDNSKNTLYLQMNSLRAEDTAVYYCARKRWYGMDVWGQGTTVTVSS VL: SYELTQPPSVSVAPGKTARITCGGNNIGSKSVHWYQQKPGQAPVLVVYDDSDRPSGIPERFSGSNSGNTATLTISRVEAGDEADYYCQVWDSRTYVFGTGTKLTVL	0.277 nM
A01 scFv-Fc (scFv, V domains shown, Tested as scFv-Fc fusion (human IgG1 Fc, vector pDNL9) in crude yeast supernatant; Combo 1 library) VH: EVQLVESGGGVVQPGRSLRLSCAASGFTFSNKAMNWVRQAPGKGLEWVSAISGSGATTYYADSVKGRFTISRDNSKNTLYLQMNSLRAEDTAVYYCARKRWYGMDVWGQGTTVTVSS VL: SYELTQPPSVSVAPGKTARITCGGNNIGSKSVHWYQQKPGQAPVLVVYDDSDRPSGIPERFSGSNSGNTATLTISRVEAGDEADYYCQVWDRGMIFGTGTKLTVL	0.224 nM

query: Consider the binder A05 scFv-Fc (scFv, V domains shown, Tested as scFv-Fc fusion (human IgG1 Fc, vector pDNL9) in crude yeast supernatant; Combo 1 library) VH: EVQLVESGGGVVQPGRSLRLSCAASGFTYSSRAMNWVRQAPGKGLEWVSAISGSGSNAYYADSVKGRFTISRDNSKNTLYLQMNSLRAEDTAVYYCARKRWYGMDVWGQGTTVTVSS VL: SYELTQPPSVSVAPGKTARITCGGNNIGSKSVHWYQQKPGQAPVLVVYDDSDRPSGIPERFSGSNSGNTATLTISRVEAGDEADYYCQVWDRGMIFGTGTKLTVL and give its recorded Kd.
result: 0.117 nM

Cited source for all entries: patent US20240309095A1
